Each record here notes measured TGI.
- Test system: MDA-MB-435
- Measurement notes: NCI tumour cell line growth inhibition, 48 h

{"Molecule": "C=CC(C)c1cccc(C=O)c1O (centres undefined)", "Endpoint value": "41.7 µM"}

Would you kindly share the measured TGI for Nc1nc2ccc(NCc3ccc(C(=O)NC(CCC(=O)O)C(=O)O)cc3)cc2c(=O)[nH]1 (centres undefined) ?
> 100 µM

What does the record list as TGI for Fc1cccc(F)c1C1SCc2nc3cc4ccccc4cc3n21 (centres undefined) ?
> 100 µM

Look at this molecule and give its reported TGI. `C=CCNC(=S)/N=C\C(C(=O)OCC)=C(/O)C(=O)OCC`
> 100 µM
